targetDesc: T1, human chemokine (C-C motif) receptor 8 (CCR8) (human, UniProt P51685 1-355)
T1 construct: also called hCCR8
T1 sequence (P51685 whole entry): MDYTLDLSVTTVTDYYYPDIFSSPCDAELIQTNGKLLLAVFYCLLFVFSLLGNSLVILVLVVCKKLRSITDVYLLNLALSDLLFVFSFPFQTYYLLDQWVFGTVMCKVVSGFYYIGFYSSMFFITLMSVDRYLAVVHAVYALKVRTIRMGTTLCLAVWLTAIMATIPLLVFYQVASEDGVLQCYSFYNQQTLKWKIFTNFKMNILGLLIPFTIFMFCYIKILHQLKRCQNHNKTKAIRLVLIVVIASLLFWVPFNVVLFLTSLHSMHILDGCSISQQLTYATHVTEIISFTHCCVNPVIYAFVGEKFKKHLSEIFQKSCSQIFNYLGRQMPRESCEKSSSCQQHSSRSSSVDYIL
assayProtocol: flow cytometry blocking, human PBMC, CD3+ gate; competitor PE-AB7
measuredProperty: % Blocking (%)
Give just the numeric value; % need not be written.

// field: % Blocking; key: anti-CCR8 monoclonal antibody AB6 (antibody, V domains shown, also called antibody 6; clone 6) VH: QVQLKESGPGLVQPSQTLSLTCTVSGFSLTSYHVSWVRQPPGKGLEWMGVIWTGGSTTYNSLLKSRLSISRDISKSQVFLKMNSLQTEDTATYYCARGGTVVKGGFAYWGQGTLVTVSS VL: DIQMTQSPASLSASLEEIVTITCQASQDIGNRLSWYQQKPGKSPQLLIYGATSLADGVPSRFSGSRSGTQYSLKISRLQVEDIGIYYCLQAYSTPLTFGSGTKLEIK ; value = 83
